TARGET ENTITY: Factor X (FX), P00742
Sequence (P00742 whole entry, looked up): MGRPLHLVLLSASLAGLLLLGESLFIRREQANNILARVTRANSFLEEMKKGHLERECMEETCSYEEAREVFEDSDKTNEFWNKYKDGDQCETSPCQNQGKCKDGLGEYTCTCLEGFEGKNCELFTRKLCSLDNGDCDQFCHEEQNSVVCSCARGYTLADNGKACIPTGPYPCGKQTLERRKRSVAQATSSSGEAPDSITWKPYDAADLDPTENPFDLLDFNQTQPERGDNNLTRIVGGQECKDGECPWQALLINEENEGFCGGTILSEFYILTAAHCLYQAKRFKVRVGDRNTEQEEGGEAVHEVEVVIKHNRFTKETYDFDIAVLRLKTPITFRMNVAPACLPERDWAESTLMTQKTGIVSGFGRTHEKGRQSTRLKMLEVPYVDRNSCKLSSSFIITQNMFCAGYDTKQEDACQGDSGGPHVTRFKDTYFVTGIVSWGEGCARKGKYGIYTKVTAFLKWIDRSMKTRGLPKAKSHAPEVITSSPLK
Reported kcat/KM values are given for each entry in this list.
Just the number in M⁻¹ s⁻¹, nothing appended.

(Q) Entry FIXa-K247N/N249S/R318Y/T343R/E410N (protein) chain 1: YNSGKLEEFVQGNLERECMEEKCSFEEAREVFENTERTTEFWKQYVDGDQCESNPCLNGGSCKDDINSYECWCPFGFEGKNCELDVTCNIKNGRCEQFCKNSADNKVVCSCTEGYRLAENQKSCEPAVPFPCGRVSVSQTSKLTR chain 2: VVGGEDAKPGQFPWQVVLNGKVDAFCGGSIVNEKWIVTAAHCVETGVKITVVAGEHNIEETEHTEQNRSVIRIIPHHNYNAAINKYNHDIALLELDEPLVLNSYVTPICIADKEYTNIFLKFGSGYVSGWGRVFHKGYSALVLQYLRVPLVDRATCLRSTKFRIYNNMFCAGFHEGGRDSCQGDSGGPHVTEVEGTSFLTGIISWGEECAMKGKYGIYTKVSRYVNWIKNKTKLT has what kcat/KM?
(A) 2e+08

(Q) Entry FIXa-K247N/N249S/R338E/T343R/E410N (protein) chain 1: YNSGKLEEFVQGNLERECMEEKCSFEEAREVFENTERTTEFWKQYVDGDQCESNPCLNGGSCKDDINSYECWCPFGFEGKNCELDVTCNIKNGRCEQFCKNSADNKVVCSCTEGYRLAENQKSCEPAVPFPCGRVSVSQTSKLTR chain 2: VVGGEDAKPGQFPWQVVLNGKVDAFCGGSIVNEKWIVTAAHCVETGVKITVVAGEHNIEETEHTEQNRSVIRIIPHHNYNAAINKYNHDIALLELDEPLVLNSYVTPICIADKEYTNIFLKFGSGYVSGWGRVFHKGRSALVLQYLRVPLVDRATCLESTKFRIYNNMFCAGFHEGGRDSCQGDSGGPHVTEVEGTSFLTGIISWGEECAMKGKYGIYTKVSRYVNWIKNKTKLT has what kcat/KM?
(A) 3.1e+08

(Q) Entry FIXa-K247N/N249S/R318Y/R338E/T343R/E410N (protein) chain 1: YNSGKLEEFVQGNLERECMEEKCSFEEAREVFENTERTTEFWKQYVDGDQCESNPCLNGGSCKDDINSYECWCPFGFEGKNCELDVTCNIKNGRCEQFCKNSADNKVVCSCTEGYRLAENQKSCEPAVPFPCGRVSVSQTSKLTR chain 2: VVGGEDAKPGQFPWQVVLNGKVDAFCGGSIVNEKWIVTAAHCVETGVKITVVAGEHNIEETEHTEQNRSVIRIIPHHNYNAAINKYNHDIALLELDEPLVLNSYVTPICIADKEYTNIFLKFGSGYVSGWGRVFHKGYSALVLQYLRVPLVDRATCLESTKFRIYNNMFCAGFHEGGRDSCQGDSGGPHVTEVEGTSFLTGIISWGEECAMKGKYGIYTKVSRYVNWIKNKTKLT has what kcat/KM?
(A) 3.2e+08
